Biological target: Macrophage colony-stimulating factor 1 receptor (Homo sapiens, UniProt P07333)
Sequence (P07333 whole entry): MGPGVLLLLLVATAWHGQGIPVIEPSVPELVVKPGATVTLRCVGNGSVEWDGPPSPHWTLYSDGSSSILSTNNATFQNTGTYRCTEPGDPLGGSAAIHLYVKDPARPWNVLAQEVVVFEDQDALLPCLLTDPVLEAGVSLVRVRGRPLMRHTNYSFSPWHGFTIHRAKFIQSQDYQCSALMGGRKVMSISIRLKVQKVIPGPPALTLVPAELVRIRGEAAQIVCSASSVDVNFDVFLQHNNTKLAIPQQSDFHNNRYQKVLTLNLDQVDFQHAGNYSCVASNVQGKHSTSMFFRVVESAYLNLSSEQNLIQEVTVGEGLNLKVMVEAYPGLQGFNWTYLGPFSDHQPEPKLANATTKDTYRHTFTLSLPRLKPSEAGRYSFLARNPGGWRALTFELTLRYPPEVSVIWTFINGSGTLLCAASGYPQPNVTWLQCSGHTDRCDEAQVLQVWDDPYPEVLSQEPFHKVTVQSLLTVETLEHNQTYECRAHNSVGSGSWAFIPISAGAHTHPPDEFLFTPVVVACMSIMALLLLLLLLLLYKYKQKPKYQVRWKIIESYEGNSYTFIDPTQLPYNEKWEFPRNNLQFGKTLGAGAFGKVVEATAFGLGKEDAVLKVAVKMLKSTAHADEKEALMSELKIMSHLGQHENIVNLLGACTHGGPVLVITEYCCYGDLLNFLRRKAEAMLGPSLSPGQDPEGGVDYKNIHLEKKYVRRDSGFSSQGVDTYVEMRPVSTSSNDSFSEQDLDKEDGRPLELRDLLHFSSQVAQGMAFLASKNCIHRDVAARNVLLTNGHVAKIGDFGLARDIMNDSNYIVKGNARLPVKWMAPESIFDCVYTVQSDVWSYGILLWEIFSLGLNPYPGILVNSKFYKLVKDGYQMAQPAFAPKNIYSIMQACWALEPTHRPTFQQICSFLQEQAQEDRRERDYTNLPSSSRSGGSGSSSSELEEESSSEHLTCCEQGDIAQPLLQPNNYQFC
Assay: Inhibition of human CSF1R using poly[Glu:Tyr] (4:1) as substrate after 120 mins in presence of 10 uM [gamma-33P]-ATP by filtration method
pIC50: −log10 of the molar value.
Class 1 (yes): pIC50 at least 6. Class 0 (no): pIC50 below 6.

>>> grouplabel("COc1ccc(Oc2nc(Nc3ccc(N4CCOCC4)nc3)ncc2NC(=O)c2cc(OC)cc(OC)c2)cc1")
"1 (yes)"
>>> grouplabel("COc1ccc(Oc2nc(Nc3ccc(N4CCOCC4)cc3)ncc2NC(N)=O)cc1")
"0 (no)"
>>> grouplabel("COc1ccc(Oc2nc(Nc3ccc(N4CCOCC4)cc3)ncc2NC(=O)c2cccc(C(F)(F)F)c2)cc1")
"0 (no)"
>>> grouplabel("COc1ccc(Oc2nc(Nc3ccc(N4CCOCC4)cc3)ncc2NC(=O)c2cc(OC)cc(OC)c2)cc1")
"1 (yes)"
>>> grouplabel("COc1ccc(Oc2nc(Nc3ccc(N4CCCCC4)nc3)ncc2NC(=O)c2cc(OC)cc(OC)c2)cc1")
"0 (no)"

###

Molecular target: Macrophage colony-stimulating factor 1 receptor (Homo sapiens)
Experiment: Inhibition of human CSF1R at 10 uM using poly[Glu:Tyr] (4:1) as substrate after 120 mins in presence of 10 uM [gamma-33P]-ATP by filtration method relative to control
readoutKind: inhibition (%)

>>> reportedvalue("COc1ccc(Oc2nc(Nc3ccc(N4CCOCC4)nc3)ncc2NC(N)=O)cc1")
35.4
>>> reportedvalue("COc1ccc(Oc2nc(Nc3ccc(N4CCCCC4)nc3)ncc2NC(N)=O)cc1")
28.4
>>> reportedvalue("COc1ccc(Oc2nc(Nc3ccc(N4CCOCC4)cc3)ncc2NC(N)=O)cc1")
65
>>> reportedvalue("COc1cccc(Oc2nc(Nc3ccc(N4CCOCC4)cc3)ncc2NC(N)=O)c1")
77.6
>>> reportedvalue("COc1ccc(Oc2nc(Nc3ccc(F)cc3)ncc2NC(=O)c2cc(OC)cc(OC)c2)cc1")
35.2
>>> reportedvalue("COc1ccc(Oc2nc(Nc3ccc(N4CCCCC4)nc3)ncc2NC(=O)c2cc(OC)cc(OC)c2)cc1")
76
>>> reportedvalue("COc1ccc(Oc2nc(Nc3ccc(N4CCOCC4)nc3)ncc2NC(=O)c2cc(OC)cc(OC)c2)cc1")
77.9
